system: RS4; 11 leukaemia tumour line; assay: In vitro cytotoxicity, Microculture Tetrazolium Assay (MTT); type: cell-based; settings: Homo sapiens, RS4-11, 48 h, 11 cells, 48 hours exposure
assay-metric: IC50 (nM)
Answers are plain numbers, in nM.

Worked examples follow.
{"columns": ["molecule", "reported-value"],
 "data": [
  ["Cc1c2cc(n1C)-c1cc(Cl)ccc1C(=O)N1CCc3c(cccc3OCCCCCOc3ncc(cn3)N(c3ccc(O)cc3)C2=O)C1", 29.9],
  ["Cc1c(N2C(=O)c3cc(n(C)c3C)-c3cc(Cl)ccc3C(=O)N3CCCC(CCOc4cc(O)ccc42)C3)cc(C#N)n1C (stereo not drawn)", 70.5],
  ["Cc1c2cc(n1C)-c1cc(Cl)ccc1C(=O)N1CCc3c(cccc3OCCc3c(cnn3C3CCOC3)N(c3ccc(O)cc3)C2=O)C1 (stereo not drawn)", 73.3]
]}

Hi team, please reply with IC50 for each item in this list.
1. Cc1c2cc(n1C)-c1cc(Cl)ccc1C(=O)N1CCc3c(cccc3OCCOc3cccc(c3)N(c3ccc(O)cc3)C2=O)C1
2. Cc1c2cc(n1C)-c1cc(Cl)ccc1C(=O)N1CCc3c(cccc3OCCCn3c(C#N)cc(c3C)N(c3ccc(O)cc3)C2=O)C1

107
49.3
